target-or-test-system: menin/MLL binding (biotinylated wild-type or mutated menin and MLL-AF9 fusion protein) (Homo sapiens, UniProt O00255)
Construct: biotinylated (1) wild-type menin or (2) mutated menin (described in Nature (2012) Vol. 482, pp. 542-548); fused on or other part: Biotin attached chemically (Sulfo-NHS-Biotin); no fused second protein is printed for menin
Sequence (O00255 1-459 limits assumed): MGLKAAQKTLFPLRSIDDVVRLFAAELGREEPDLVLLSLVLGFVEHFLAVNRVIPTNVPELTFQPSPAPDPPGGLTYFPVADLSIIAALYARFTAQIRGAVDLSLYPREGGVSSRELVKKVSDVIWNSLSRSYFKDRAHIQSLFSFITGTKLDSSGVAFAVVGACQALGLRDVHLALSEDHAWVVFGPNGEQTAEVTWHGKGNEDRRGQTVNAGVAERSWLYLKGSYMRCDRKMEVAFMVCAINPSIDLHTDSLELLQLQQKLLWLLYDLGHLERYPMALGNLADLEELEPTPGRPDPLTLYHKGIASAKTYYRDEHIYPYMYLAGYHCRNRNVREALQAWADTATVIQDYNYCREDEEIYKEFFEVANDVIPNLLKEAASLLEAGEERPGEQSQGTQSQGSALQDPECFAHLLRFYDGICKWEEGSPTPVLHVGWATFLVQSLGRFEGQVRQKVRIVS
assay-procedure: Assay 1 (Binding Assay): AlphaLISA menin/MLL binding
condition-description: 5 nM biotinylated menin, MLL-AF9-FLAG lysate
pIC50: −log10 of the molar value.
Provide the recorded pIC50 for the entries that follow.

// query I'd like to know its pIC50. The compound in question is CC(C)N(C)C(=O)c1cc(F)ccc1-n1cc(C2CCN(C(=O)OC(C)(C)C)CC2)c2ccncc21
// result 6.00 to 7.00

// query I'd like to know its pIC50. The compound in question is CC(C)N(C)C(=O)c1cc(F)ccc1-n1cc(C2CCCN(Cc3ccc4[nH]c(=O)[nH]c4c3)C2)c2ccncc21 (single isomer, unassigned) [Example 43B]
// result > 7.00

// query I'd like to know its pIC50. The compound in question is CC(C)CCN1CCC(c2cn(-c3ccc(F)cc3)c3cnccc23)CC1
// result 6.00 to 7.00

// query I'd like to know its pIC50. The compound in question is CC(C)N(C)C(=O)c1cc(F)ccc1-n1cc(C2CCC(N(C)CC3CCC(NS(C)(=O)=O)CC3)CC2)c2ccncc21 (single isomer, unassigned) [Example 128]
// result > 7.00

// query I'd like to know its pIC50. The compound in question is CC(C)N(C)C(=O)c1cc(F)ccc1-n1cc(C2CCN(CCC3CCOCC3)CC2)c2ccncc21
// result > 7.00

// query I'd like to know its pIC50. The compound in question is CNC(=O)c1cccc(CCN2CCC(c3cn(-c4ccc(F)cc4C(=O)N(C)C(C)C)c4cnccc34)CC2)c1
// result > 7.00

// query I'd like to know its pIC50. The compound in question is CC(C)N(C(=O)c1cc(F)ccc1-n1cc(C2CCCN(Cc3ccc4c(c3)[nH]c(=O)n4CCO)C2)c2ccncc21)C(C)C (centres unmarked)
// result > 7.00

// query I'd like to know its pIC50. The compound in question is Cc1c(CN2CCC(c3cn(-c4ccc(Cl)cc4)c4cnccc34)CC2)ccc2[nH]c(C#N)cc12
// result 6.00 to 7.00

// query I'd like to know its pIC50. The compound in question is CC(C)N(C(=O)c1cc(F)ccc1-n1cc(C2CCN(Cc3ccc4oc(=O)[nH]c4c3)C2)c2ccncc21)C(C)C (centres unmarked)
// result > 7.00

// query I'd like to know its pIC50. The compound in question is Fc1ccc(-n2cc(C3CCN(CC4CCOCC4)CC3)c3ncncc32)cc1
// result ≤ 6.00

// query I'd like to know its pIC50. The compound in question is CC(C)N(C)C(=O)c1cc(F)ccc1-n1cc(C2CCC(N(C)C)CC2)c2ccncc21 (single isomer, unassigned) [Example 54]
// result > 7.00

// query I'd like to know its pIC50. The compound in question is O=c1[nH]c2ccc(CN3CCC(c4cn(-c5ccccc5)c5cncnc45)CC3)cc2[nH]1
// result ≤ 6.00

// query I'd like to know its pIC50. The compound in question is CC(C)N(C)C(=O)c1cc(F)ccc1-n1cc(C2CCN(C[C@H]3CC[C@H](NS(C)(=O)=O)CC3)CC2)c2ccncc21
// result > 7.00

// query I'd like to know its pIC50. The compound in question is Cc1c(CN2CCC(n3c(=O)n(-c4ccc(F)cc4)c4cnccc43)CC2)ccc2[nH]c(C#N)cc12
// result > 7.00

---

target-or-test-system: menin/MLL binding (biotinylated wild-type or mutated menin and MLL-AF9 fusion protein) (Homo sapiens, UniProt O00255)
Construct: biotinylated (1) wild-type menin or (2) mutated menin (described in Nature (2012) Vol. 482, pp. 542-548); fused on or other part: Biotin attached chemically (Sulfo-NHS-Biotin); no fused second protein is printed for menin
assay-procedure: Assay 1 (Binding Assay): AlphaLISA menin/MLL binding
condition-description: 5 nM biotinylated menin, MLL-AF9-FLAG lysate
metric-name: IC50

// query I'd like to know its IC50. The molecule in question is CC(C)N(C)C(=O)c1cc(F)ccc1-n1cc([C@H]2CC[C@H](N3CCC[C@@H]3CO)CC2)c2ccncc21 [Example 100]
// result < 100 nM

// query I'd like to know its IC50. The molecule in question is CC(C)N(C)C(=O)c1cc(F)ccc1-n1cc(C2CC3CN(C[C@H]4C[C@H](NS(C)(=O)=O)C4)CC3C2)c2ccncc21 (some centres unmarked) [Example 89]
// result < 100 nM

// query I'd like to know its IC50. The molecule in question is CC(C)N(C)C(=O)c1cc(F)ccc1-n1cc(C2CCCN(Cc3ccc4c(c3)[nH]c(=O)n4CCO)C2)c2ccncc21 (centres unmarked) [Example 44]
// result < 100 nM

// query I'd like to know its IC50. The molecule in question is CC(C)N(C)C(=O)c1cc(F)ccc1-n1cc([C@H]2CC[C@@H](N3CC[C@@H](CO)C3)CC2)c2ccncc21 [Example 103]
// result < 100 nM

// query I'd like to know its IC50. The molecule in question is CC(C)N(CCO)C(=O)c1cc(F)ccc1-n1cc(C2CCN(Cc3ccccc3)CC2)c2ccncc21 [Example 36]
// result < 100 nM

// query I'd like to know its IC50. The molecule in question is CC(C)N(C)C(=O)c1cc(F)ccc1-n1c(=S)n(C2CCCN(Cc3ccc4[nH]c(=O)[nH]c4c3)C2)c2ccncc21 (centres unmarked) [Example 135]
// result 100 to 1000 nM

// query I'd like to know its IC50. The molecule in question is CC(C)N(C)C(=O)c1cc(F)ccc1-n1cc([C@H]2CC[C@@H](N)CC2)c2ccncc21 [Example 58]
// result 100 to 1000 nM

// query I'd like to know its IC50. The molecule in question is Cc1c(CN2CCC(c3cn(-c4ccc(F)cc4C(=O)N(C)C(C)C)c4cnccc34)CC2)ccc2[nH]c(C#N)cc12 [Example 2]
// result < 100 nM

// query I'd like to know its IC50. The molecule in question is CC(C)N(C)C(=O)c1cc(F)ccc1-n1cc(C2CCN(Cc3ccc(C(F)(F)F)cc3)CC2)c2ccncc21 [Example 11]
// result < 100 nM

// query I'd like to know its IC50. The molecule in question is CC(C)N(C)C(=O)c1cc(F)ccc1-n1cc(C2CCC(NCc3ccc4[nH]c(=O)[nH]c4c3)CC2)c2ccncc21 (single isomer, unassigned) [Example 60]
// result < 100 nM

// query I'd like to know its IC50. The molecule in question is CC(C)N(C)C(=O)c1cc(F)ccc1-n1c(=O)n(C2CCN(Cc3ccc(F)cc3)CC2)c2ccncc21 [Example 83]
// result 100 to 1000 nM

// query I'd like to know its IC50. The molecule in question is CC(C)N(C)C(=O)c1cc(F)ccc1-n1cc(C2CCN(Cc3ccc4[nH]c(=O)[nH]c4c3)C2)c2ccncc21 (centres unmarked) [Example 122]
// result < 100 nM

// query I'd like to know its IC50. The molecule in question is CC(c1ccccc1)N1CCC(c2cn(-c3ccc(F)cc3C(=O)N(C)C(C)C)c3cnccc23)CC1 (centres unmarked) [Example 30]
// result < 100 nM

// query I'd like to know its IC50. The molecule in question is CC(C)N(C)C(=O)c1cc(F)ccc1-n1cc([C@H]2CC[C@H](N3CCC(C(=O)O)CC3)CC2)c2ccncc21 [Example 119]
// result 100 to 1000 nM

All values here come from patent US10899758B2.
